Listed next: entries and their corresponding pIC50.
- Tested on: BT-20
- assay-explanation: Inhibitory activity against BT20 breast cancer cell line
- Type: functional
- stated-conditions: Homo sapiens, read-out: ID50 (the source's name)
pIC50: −log10 of the molar value.

- compound: "C=C1C(=O)O[C@@H]2C[C@@]3(C)CCCC(=C)[C@@H]3C[C@H]12 [ISOALANTOLACTONE]"
  pIC50: 5.92
- compound: "C=C1CCC[C@]2(C)C[C@H]3OC(=O)[C@@H](CN(CC)CC)[C@H]3C[C@@H]12"
  pIC50: 5.92

Where do the numbers come from? From ChEMBL document CHEMBL1134178.
